src = the supplement of paper PMC10567573

B1: ZNF193 (parent)
chain: QCIECGKSFNRHCNLIRHQKIHTV

# Variants of: B1
# Experiment Notes: protein stability index of a GFP-peptide fusion (GPS, HEK-293T) (PSI 1-6); higher = more stable;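 further: lentivirally expressed fusions sorted by FACS into six bins by GFP to DsRed ratio, PSI derived from sequencing read proportions per bin multiplied by bin number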
# Measurement Context: c terminus: a fixed tail appended
Experimental Endpoint: protein stability index

# Sequence Input, protein stability index
data = [
    ("QCIECGKSFNRHVNLIRHQKIHTV [C13V]", 3.88),
]

Task item: Data request, read-out protein stability index, for QCIECGKSFNRHCNLIRHEKIHTV [Q19E]
Reply: 3.73

Task item: Data request, read-out protein stability index, for QCIECGKSFNDHCNLIRHQKIHTV [R11D]
Reply: 4.37
